src = ChEMBL document CHEMBL1141912

Target: Geranylgeranyl transferase type I (Homo sapiens, UniProt P49354+P53609)
Test: Percent inhibition of Geranylgeranyl transferase type I at 10 uM
Type: protein-complex assay
Short version: inhibition at least 10% is 1 (yes), less is 0 (no).

Recorded results for 8 compounds are shown here.
1) O=C(O)CC(c1c[nH]cn1)N(Cc1nc[nH]n1)C1CCN(Cc2ccccc2)CC1 (stereo unspecified)    1 (yes)
2) c1cncc(CN(Cc2c[nH]cn2)Cc2ccco2)c1    1 (yes)
3) CCCCCCN(Cc1nc[nH]n1)C(CC(=O)O)c1c[nH]cn1 (stereo unspecified)    0 (no)
4) CCCCCCCN(Cc1ccc(Oc2ccccc2)cc1)Cc1c[nH]cn1    1 (yes)
5) Cc1ccc(CCN(Cc2ccc(Oc3ccccc3)cc2)Cc2c[nH]cn2)cc1    1 (yes)
6) O=C(O)CC(c1c[nH]cn1)N(Cc1nc[nH]n1)CC1CCCCC1 (stereo unspecified)    0 (no)
7) O=C(O)CC(c1c[nH]cn1)N(CC1CCCCC1)S(=O)(=O)c1cc(Cl)sc1Cl (stereo unspecified)    1 (yes)
8) Brc1ccc(CCN(Cc2ccc(-c3ccccc3)cc2)Cc2c[nH]cn2)cc1    1 (yes)

# input Check the entry O=C(O)CC(c1c[nH]cn1)N(CCc1cccs1)Cc1nc[nH]n1 (stereo unspecified) : does inhibition equal or exceed 10%?
# output 1 (yes)

# input Check the entry O=C(O)CC(c1c[nH]cn1)N(CCc1ccc(F)cc1)S(=O)(=O)c1cc(Cl)sc1Cl (stereo unspecified) : does inhibition equal or exceed 10%?
# output 1 (yes)
